# measured_target: DPP-IV (Homo sapiens, UniProt P27487)
# measurement_description: Surface plasmon resonance (Biacore 8K, CM5 chip, 25 °C)
# Format: binding
# Parameters: purchased QiZheng Biotech (Shanghai, China) IBDPP0901
# condition_parameters: SPR, Table S3; read-out: KD values
Where a SMILES comes first, the peptide text is derived from it.
rule met if Kd is below 10 µM. rule not met if not; exact matches included in rule not met.

| compound | category |
| --- | --- |
| CSCC[C@H](NC(=O)[C@H](C)NC(=O)[C@@H](N)C(C)C)C(=O)N1CCC[C@H]1C(=O)O [VAMP] (H-VAMP-OH) | rule met |
| CC(C)[C@H](N)C(=O)N[C@@H](C)C(=O)N[C@@H](CC(=O)O)C(=O)N[C@@H](Cc1c[nH]c2ccccc12)C(=O)O [VADW] (H-VADW-OH) | rule not met |
| C[C@H](NC(=O)[C@H](Cc1ccc(O)cc1)NC(=O)[C@H](CO)NC(=O)[C@@H](N)Cc1ccc(O)cc1)C(=O)O [YSYA] (H-YSYA-OH) | rule met |
| CC(C)C[C@H](NC(=O)[C@@H](N)CC(C)C)C(=O)N[C@@H](Cc1ccc(O)cc1)C(=O)O [LLY] (H-Leu-Leu-Tyr-OH) | rule met |
| C[C@@H](O)[C@H](NC(=O)[C@@H](N)Cc1ccc(O)cc1)C(=O)NCC(=O)N[C@@H](CC(=O)O)C(=O)O [YTGD] (H-YTGD-OH) | rule not met |
| CC(C)C[C@H](NC(=O)[C@H](CC(N)=O)NC(=O)[C@@H](N)Cc1ccc(O)cc1)C(=O)N1CCC[C@H]1C(=O)O [YNLP] (H-YNLP-OH) | rule not met |
| CSCC[C@H](NC(=O)[C@H](CC(C)C)NC(=O)[C@H](CCC(N)=O)NC(=O)[C@@H](N)Cc1ccc(O)cc1)C(=O)O [YQLM] (H-YQLM-OH) | rule not met |

====

# measurement_description: Simulated digestive stability of peptides (pepsase then trypsase)
# Type: in vitro ADME, porcine
# condition_parameters: pig, pH 7, simulated digestion, after pepsase then trypsase, relative to basal 100; replicate 2; sheet S2H; read-out: Peptide remaining, Trypsase
Where a SMILES comes first, the peptide text is derived from it.
metric: remaining at 4 h, 5 mg/mL

| compound | result |
| --- | --- |
| CC(C)C[C@H](NC(=O)[C@H](CC(N)=O)NC(=O)[C@@H](N)Cc1ccc(O)cc1)C(=O)N1CCC[C@H]1C(=O)O [YNLP] (H-YNLP-OH) | 99% |
| CC(C)C[C@H](NC(=O)[C@@H](N)CC(C)C)C(=O)N[C@@H](Cc1ccc(O)cc1)C(=O)O [LLY] (H-Leu-Leu-Tyr-OH) | 0.78% |
| CC(C)[C@H](N)C(=O)N[C@@H](C)C(=O)N[C@@H](CC(=O)O)C(=O)N[C@@H](Cc1c[nH]c2ccccc12)C(=O)O [VADW] (H-VADW-OH) | 9.52% |

====

# measured_target: DPP-IV (Homo sapiens)
# measurement_description: DPP-IV inhibitory activity of peptides (DPP-IV-Glo Protease Assay Kit)
# Type: biochemical
# Parameters: purchased QiZheng Biotech (Shanghai, China) IBDPP0901
# condition_parameters: DPP-IV-Glo Protease Assay Kit; control = 0; replicate 2; sheet S2F; in % (unit assumed)
# Sequence (P27487 whole entry): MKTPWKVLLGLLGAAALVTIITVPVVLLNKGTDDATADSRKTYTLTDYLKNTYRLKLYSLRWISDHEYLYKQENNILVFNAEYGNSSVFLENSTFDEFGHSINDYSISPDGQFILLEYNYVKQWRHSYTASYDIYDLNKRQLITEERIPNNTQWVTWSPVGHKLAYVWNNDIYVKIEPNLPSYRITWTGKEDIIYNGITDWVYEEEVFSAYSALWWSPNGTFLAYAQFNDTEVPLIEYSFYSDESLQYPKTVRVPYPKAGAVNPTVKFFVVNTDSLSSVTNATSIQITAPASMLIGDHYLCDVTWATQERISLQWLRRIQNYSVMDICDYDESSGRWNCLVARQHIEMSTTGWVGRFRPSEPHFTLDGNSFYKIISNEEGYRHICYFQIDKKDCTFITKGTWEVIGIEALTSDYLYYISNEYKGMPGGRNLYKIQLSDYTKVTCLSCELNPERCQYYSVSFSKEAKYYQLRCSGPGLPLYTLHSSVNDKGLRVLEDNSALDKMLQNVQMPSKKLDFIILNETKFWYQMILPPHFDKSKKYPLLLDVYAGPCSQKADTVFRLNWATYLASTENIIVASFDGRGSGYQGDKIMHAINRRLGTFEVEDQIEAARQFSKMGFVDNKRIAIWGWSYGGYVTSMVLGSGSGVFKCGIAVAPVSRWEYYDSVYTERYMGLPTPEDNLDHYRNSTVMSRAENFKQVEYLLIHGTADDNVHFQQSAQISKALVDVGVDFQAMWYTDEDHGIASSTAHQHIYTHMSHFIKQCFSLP
Where a SMILES comes first, the peptide text is derived from it.

| compound | DPP-IV inhibitory activity |
| --- | --- |
| CSCC[C@H](NC(=O)[C@H](C)NC(=O)[C@@H](N)C(C)C)C(=O)N1CCC[C@H]1C(=O)O [VAMP] (H-VAMP-OH) | 67.7707 |
| CC(C)C[C@H](NC(=O)[C@H](CC(N)=O)NC(=O)[C@@H](N)Cc1ccc(O)cc1)C(=O)N1CCC[C@H]1C(=O)O [YNLP] (H-YNLP-OH) | 17.2115 |
| N[C@@H](Cc1c[nH]c2ccccc12)C(=O)N[C@@H](CC(=O)O)C(=O)N[C@@H](CO)C(=O)N[C@@H](Cc1ccc(O)cc1)C(=O)O [WDSY] (H-WDSY-OH) | 85.4257 |
| CC(C)C[C@H](NC(=O)[C@H](CCC(N)=O)NC(=O)[C@@H](N)Cc1ccccc1)C(=O)O [FQL] (H-Phe-Gln-Leu-OH) | 22.9016 |
| C[C@@H](O)[C@H](NC(=O)[C@@H](N)Cc1ccc(O)cc1)C(=O)NCC(=O)N[C@@H](CC(=O)O)C(=O)O [YTGD] (H-YTGD-OH) | 15.5931 |
| CSCC[C@H](NC(=O)[C@H](CC(C)C)NC(=O)[C@H](CCC(N)=O)NC(=O)[C@@H](N)Cc1ccc(O)cc1)C(=O)O [YQLM] (H-YQLM-OH) | 38.0136 |
| CC(C)C[C@H](NC(=O)[C@@H](N)CC(C)C)C(=O)N[C@@H](Cc1ccc(O)cc1)C(=O)O [LLY] (H-Leu-Leu-Tyr-OH) | 33.3933 |
| CC(C)[C@H](N)C(=O)N[C@@H](C)C(=O)N[C@@H](CC(=O)O)C(=O)N[C@@H](Cc1c[nH]c2ccccc12)C(=O)O [VADW] (H-VADW-OH) | 57.5085 |
| C[C@H](NC(=O)[C@H](Cc1ccc(O)cc1)NC(=O)[C@H](CO)NC(=O)[C@@H](N)Cc1ccc(O)cc1)C(=O)O [YSYA] (H-YSYA-OH) | 29.9267 |
| CC(C)C[C@H](N)C(=O)N[C@@H](CC(N)=O)C(=O)N[C@@H](C)C(=O)N1CCC[C@H]1C(=O)O [LNAP] (H-LNAP-OH) | 16.0533 |
| CC(C)C[C@H](NC(=O)[C@@H](N)Cc1ccccc1)C(=O)N[C@@H](CCC(N)=O)C(=O)O [FLQ] (H-Phe-Leu-Gln-OH) | 32.7776 |
| NC(=O)CC[C@H](NC(=O)[C@@H]1CCCN1C(=O)[C@@H](N)Cc1ccccc1)C(=O)N[C@@H](CO)C(=O)O [FPQS] (H-FPQS-OH) | 29.3845 |
| CC(C)C[C@H](NC(=O)[C@@H](N)Cc1c[nH]c2ccccc12)C(=O)N[C@@H](CCC(=O)O)C(=O)O [WLE] (H-Trp-Leu-Glu-OH) | 16.4075 |
